Target: phosphorylated VEGF-R2Δ50 (FLVK-P) (Homo sapiens, UniProt P35968, DEL940-989/E990V)
Construct: VEGF-R2Δ50 contains residues 806-939 and 990-1171; made in house; host or cells: baculovirus/insect cells
Sequence (P35968 with tags, fused parts or gaps DEL940-989/E990V limits assumed): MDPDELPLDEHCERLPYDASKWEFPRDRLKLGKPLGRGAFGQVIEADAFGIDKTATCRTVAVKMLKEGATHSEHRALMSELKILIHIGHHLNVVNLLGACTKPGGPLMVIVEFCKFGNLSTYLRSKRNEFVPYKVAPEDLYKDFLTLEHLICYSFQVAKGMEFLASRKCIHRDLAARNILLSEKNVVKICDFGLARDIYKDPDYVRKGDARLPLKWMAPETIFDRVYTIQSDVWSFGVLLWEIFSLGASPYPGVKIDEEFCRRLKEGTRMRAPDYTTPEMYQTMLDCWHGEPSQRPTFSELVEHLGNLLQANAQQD
Test: VEGF-R2 coupled spectrophotometric (FLVK-P) assay
Assay type: biochemical
Settings: 20 μM; combinatorial library compounds
Procedure: VEGF-R2 Construct for Assay: This construct determines the ability of a test compound to inhibit tyrosine kinase activity. […] The production of ADP from ATP that accompanies phosphoryl transfer was coupled to oxidation of NADH using phosphoenolpyruvate (PEP) and a system having pyruvate kinase (PK) and lactic dehydrogenase (LDH). The oxidation of NADH was monitored by following the decrease of absorbance at 340 nm (e340=6.22 cm^−1 mM^−1) using a Beckman DU 650 spectrophotometer. […]
resultType: VEGF % inhibition at 20 μM (%)
One number for each entry, in %.

Reference set, count: 2
{"columns": ["compound", "valueUnit", "VEGF % inhibition at 20 μM"],
 "data": [
  ["COc1ccc(-c2csc(-c3sc(Nc4ccc(S(N)(=O)=O)cc4)nc3N)n2)cc1 [drawing 399]", "%", 48],
  ["CC(C)c1ccc(Nc2nc(N)c(-c3nc(-c4ccccc4)cs3)s2)cc1 [drawing 498]", "%", 22]
]}

Here is the next item to consider.
QUERY: Requested field: VEGF % inhibition at 20 μM. Item: Nc1nc(Nc2ccc(S(N)(=O)=O)cc2)sc1-c1nc(-c2ccccc2)cs1 [drawing 435]
RESULT: 34

Values from patent US6620828B2
